- System: human JAK1
- procedureText: In vitro JAK kinase assay (HTRF), JAK1
- Format: biochemical
- reportedConditions: ratio of JAK2 IC50 to JAK1 IC50 at 1 mM ATP
Catalogue of JAK2/JAK1 readings, one per entry.

Known JAK2/JAK1 results, listed for orientation:
C[C@@H](O)c1nc2cnc3ccsc3c2n1[C@H]1CCCN(C(=O)CC#N)C1.O=C(O)C(F)(F)F = >10
CCOC(=O)NC[C@H]1CC[C@H](n2c([C@@H](C)O)nc3cnc4ccsc4c32)CC1 = >10
C[C@@H](O)c1nc2cnc3ccsc3c2n1C1CCN(CC#N)CC1.O=C(O)C(F)(F)F = >10
C[C@@H](O)c1nc2cnc3ccsc3c2n1[C@H]1CCN(CCCC(F)(F)F)C1 = >10
N#CC[C@H]1CC[C@H](n2c(C3CNC3)nc3cnc4ccsc4c32)CC1 = >7

If you can, please state the reported JAK2/JAK1 value of C[C@@H](O)c1nc2cnc3ccsc3c2n1[C@H]1CC[C@H](CNC(=O)OC2CCOC2)CC1 (stereo partly drawn) .
>10

----------
- testedSystem: UniProt O60674
- Sequence (O60674 828-1132): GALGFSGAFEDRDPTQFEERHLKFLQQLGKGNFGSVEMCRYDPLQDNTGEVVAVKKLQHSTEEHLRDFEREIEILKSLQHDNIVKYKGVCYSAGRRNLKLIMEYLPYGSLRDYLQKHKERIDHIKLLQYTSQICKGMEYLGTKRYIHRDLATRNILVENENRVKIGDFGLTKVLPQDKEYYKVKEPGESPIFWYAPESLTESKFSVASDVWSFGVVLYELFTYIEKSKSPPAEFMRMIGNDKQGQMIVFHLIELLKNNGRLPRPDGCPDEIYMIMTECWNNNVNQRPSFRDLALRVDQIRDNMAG
measure: IC50

Cc1nc2cnc3ccsc3c2n1[C@@H]1CC[C@@H](CC#N)[C@H](O)C1.Cc1nc2cnc3ccsc3c2n1[C@H]1CC[C@H](CC#N)[C@@H](O)C1 (mixture of isomers) [41 (first peak)] = < 1000 nM

If you can, please state the reported IC50 value of C[C@@H](O)c1nc2cnc3ccsc3c2n1C1CCC(O)(CC#N)CC1 (single isomer, unassigned) [24 (second peak)] .
> 2000 nM

----------
- testedSystem: human JAK1 (Homo sapiens)
- procedureText: In vitro JAK kinase assay (HTRF), JAK1
- Format: biochemical
- reportedConditions: JAK1 IC50 (nM), 1 mM ATP
measure: IC50

Cc1nc2cnc3ccsc3c2n1[C@@H]1CC[C@@H](CC#N)[C@H](O)C1.Cc1nc2cnc3ccsc3c2n1[C@H]1CC[C@H](CC#N)[C@@H](O)C1 (mixture of isomers) [41 (first peak)] = < 100 nM

If you can, please state the reported IC50 value of Cc1nc2cnc3ccsc3c2n1[C@@H]1CC[C@@H](CC#N)[C@H](O)C1.Cc1nc2cnc3ccsc3c2n1[C@H]1CC[C@H](CC#N)[C@@H](O)C1 (mixture of isomers) [41 (second peak)] .
> 2000 nM

----------
Catalogue of JAK2/JAK1 readings, one per entry.
- System: human JAK1
- procedureText: In vitro JAK kinase assay (HTRF), JAK1
- Type: biochemical
- reportedConditions: ratio of JAK2 IC50 to JAK1 IC50 at 1 mM ATP

N#CC[C@H]1CC[C@H](n2c(CO)nc3cnc4ccsc4c32)CO1 [Example 91] = >10
C[C@@H](O)c1nc2cnc3ccsc3c2n1[C@H]1CC[C@H](CC#N)[C@H](N)C1 [Example 67] = >10
C[C@@H](O)c1nc2cnc3ccsc3c2n1C1CCC(O)(CC#N)CC1 (single isomer, unassigned) [24 (first peak)] = >10
C[C@@H](O)c1nc2cnc3ccsc3c2n1[C@H]1CC[C@H](CNS(C)(=O)=O)OC1 [Example 75] = >10
CC(C)OC(=O)NC[C@H]1CC[C@H](n2c([C@@H](C)O)nc3cnc4ccsc4c32)CC1 [Example 84] = >10

# value lookup — system human JAK1, readout JAK2/JAK1, item CN1CC(c2nc3cnc4ccsc4c3n2[C@H]2CC[C@H](CC#N)CC2)C1 [Example 29]
>9

Queued: C[C@@H](O)c1nc2cnc3ccsc3c2n1C1CCNCC1F (single isomer, unassigned) [9 (2nd peak)]
>10

Queued: C[C@@H](O)c1nc2cnc3ccsc3c2n1C1CCCC(CCC#N)C1 (stereo partly drawn) [Example 32]
>10

Queued: C[C@@H](O)c1nc2cnc3ccsc3c2n1C1CCN(CCCC(F)(F)F)CC1 [Example 60]
>10

Queued: CCCOC(=O)NC[C@H]1CC[C@H](n2c([C@@H](C)O)nc3cnc4ccsc4c32)CC1 [Example 83]
>10

Queued: CS(=O)(=O)NCc1nc2cnc3ccsc3c2n1[C@H]1CC2CCC1C2 (stereo partly drawn) [Example 22]
>4
